Molecular target: Homeobox protein Hox-A13 (Mus musculus) (UniProt Q62424)
Sequence (Q62424 whole entry, looked up): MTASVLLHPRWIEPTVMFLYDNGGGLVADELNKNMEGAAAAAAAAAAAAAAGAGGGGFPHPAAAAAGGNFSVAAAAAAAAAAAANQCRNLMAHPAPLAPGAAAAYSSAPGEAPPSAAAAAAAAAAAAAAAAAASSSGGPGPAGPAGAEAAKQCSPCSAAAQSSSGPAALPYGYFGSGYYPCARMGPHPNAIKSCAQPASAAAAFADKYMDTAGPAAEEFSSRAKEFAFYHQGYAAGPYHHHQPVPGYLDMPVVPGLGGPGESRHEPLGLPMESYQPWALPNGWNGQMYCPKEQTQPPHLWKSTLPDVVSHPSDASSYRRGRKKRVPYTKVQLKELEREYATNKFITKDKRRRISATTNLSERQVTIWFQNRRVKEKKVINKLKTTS
Test: inhibitors of HoxA13-DNA binding, primary screen, biochemical, fluorescence polarization, labeled oligonucleotide (AID 1185)
Conditions: 15 min, higher = more signal, called active from +8 up or from −8 down
The source made the active and inactive calls.

compound	z-score
COC(=O)[C@@]1(Cc2ccc(F)cc2)[C@@H]2C(=CC(=O)[C@H]2CC(=O)C(=O)N2CCCC2)CN1C(=O)c1ccccc1	-4.84 (inactive)
O=C(NC1CC1)[C@@H]1c2ccccc2C(=O)N(C2CCCCC2)[C@H]1c1ccc(CO)cc1	-3.16 (inactive)
C=CCC(OC(C)=O)[C@@H]1[C@@H](N(Cc2cccc3ccccc23)C(=O)c2ccc(C)cc2)c2cc(OCCCO)ccc2N1C(=O)Cc1ccc2ccccc2c1 (some centres undefined)	-0.0782 (inactive)
CN1C(=O)C2C=CC(C(O)c3cccs3)N(N(c3ccccc3)c3ccccc3)C2C1=O (centres undefined)	-4.42 (inactive)
Cc1ccc(S(=O)(=O)N2[C@@H](c3ccccc3)C(C(=O)O)=CC[C@H]2c2ccc(F)cc2)cc1	-5.57 (inactive)
CC(C)C[C@@H]1NC(=O)[C@H]2C[C@@H](C(=O)O)[C@@H](c3cccc(OCCO)c3)N2C1=O	-2.46 (inactive)
O=C1O[C@@H](c2ccccc2)[C@@H](c2ccccc2)N2[C@@H](c3ccccc3OCCO)[C@]3(C(=O)Nc4ccc(C#CC5(O)CCCCCC5)cc43)[C@@H](C(=O)N3CCCCCCC3)[C@H]12	4.83 (inactive)
CC(C)N1CC=CC23O[C@@H]4/C=C\CCCOC(=O)C4[C@H]2C(=O)N(C(C)CO)[C@@H]3C1=O (some centres undefined)	-4.1 (inactive)
C=C(CCCC)/C(=C/C[C@@H](OC(C)=O)c1ccc(OCCO)cc1)c1cc(C(=O)OC)ccc1OC	-4.07 (inactive)
CCCCCCc1nc(-c2ccc(OC)nc2)c(C)c2c1[Si](C(C)C)(C(C)C)OC2	0.384 (inactive)
CC(C)c1ccc(NN2C(C(O)C3CCCCC3)C=CC3C(=O)N(c4ccccc4)C(=O)C32)cc1 (centres undefined)	-2.78 (inactive)
C=C(CC1([C@@H](NP(=O)(c2ccccc2)c2ccccc2)[C@H]2C[C@@H]2CCCC)CC1)c1cccc(OC)c1	-1.55 (inactive)
C=C[C@H](C)[C@@H](OC(=O)Nc1ccc(SC)cc1)c1ccc(OCCO)cc1	-4.53 (inactive)
Cc1ccc(S[C@]2(C(=O)NCC(C)C)CC(=O)N(C(C)C)[C@@H]2c2ccc(CO)cc2I)cc1	-2.86 (inactive)

----------
Assay: modulators of S6 phosphorylation in cells, primary screen, cell-based, A549, cytoblot, luminescence, serum-stimulated (AID 1158);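 further: serum-stimulated A549 lung adenocarcinoma cells; signal is phosphorylated S6 detected by cytoblot immunostaining with HRP secondary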
Conditions: A549 phospho-S6 cytoblot, 5 h, higher = more signal
assay-readout: z-score

mol-smiles	assay-value
COc1cccc(C)c1NC(=O)O[C@H]1[C@H](OC(=O)Nc2ccccc2-c2ccccc2)[C@@H](OC(=O)Nc2ccccc2-c2ccccc2)[C@@H](OC)O[C@@H]1CO	-0.338
COc1ccc([Si](C)(C)[C@H]2[C@H](CC(=O)N3CCC[C@H]3CO)O[C@@]3(C(=O)N(C)c4ccccc43)[C@@H]2C)cc1	-0.0454
CC(C)(C)OC(=O)CC[C@@]1(C(N)=O)N=C(c2ccc(OCCCO)cc2)O[C@@H]1c1ccccc1CN=[N+]=[N-]	0.0301
COCCOC(=O)N1C(=O)[C@@]2(c3cc(C#CC4=CCCCC4)ccc31)[C@H](c1ccc(O)cc1)N1[C@H](c3ccccc3)[C@H](c3ccccc3)OC(=O)[C@H]1[C@@H]2C(=O)N1CCc2cc(OC)c(OC)cc2C1	-0.294
COc1ccc(C#Cc2ccc3c(c2)[C@]2(C(=O)N3)[C@H](c3ccccc3OCCO)N3[C@H](c4ccccc4)[C@H](c4ccccc4)OC(=O)[C@H]3[C@@H]2C(=O)NC[C@H](O)c2ccccc2)cc1	0.138
CCCCCCc1nc(Cc2cc(OC)c(OC)c(OC)c2)c(C)c2c1[Si](C(C)C)(C(C)C)OC2	2.51
